# Tested on: MS2 coat protein
# ASSAY OVERVIEW: apparent Kd, MS2 coat protein; higher = weaker binding; RNA-MaP array; FMN 200 µM where present
# ASSAY CONDITIONS: designed as: ON switch for flavin mononucleotide; no ligand
Would you kindly list apparent Kd for each of these sequences?
Form entry: value (nM) — number only.

apparent Kd in this record for AGAUGUGAACAUGAGGAUCACCCAUGUGACUAGGUAUAUUUCAGAAGGCAUUUAUAGAGAUUAUAUGAGGAUAUGAAGUUUUAA : 12.7

apparent Kd in this record for GUAGCAUGCCAAGGAUAUUCAUAUAGUAGGCAAACAUGAGGAUCACCCAUGUAAUGAGAGCACUGGGAGAAGGUGGGAUGCUAC : 28.6

apparent Kd in this record for AAACACGGACAUGAGGAUCACCCAUGUGGCGAAAGCCUUGGGAGAAGGCCGAUUGCAAAGCAAUCGGAGGAUAUUCGUACCGUG : 237

apparent Kd in this record for GACGUCGGAAGUCGACGCCACUACAAGGAUAUGCACAUGAGGAUCACCCAUGUUACGAAAUCGUAGCAGAAGGUGUAGUCGUCU : 245

apparent Kd in this record for GGGUACAUCGGAGGAUAUCAUGUAAAUACAUGAGGAUCACCCAUGUCGAUGGAGGCAUCGGAGAUUGAGAAGGCCGAUGUACCG : 566

apparent Kd in this record for GGAAGACAUGAGGAUCACCCAUGUGGGAUUAUGGGAGGAUAUACAAAGACGAGAGUCAGAGUAGAAGGCCUAGGAU : 84.3

apparent Kd in this record for GCACAUGGCAUAGGAUAUAGAAGUAUACAUUAUAUAGGUAGUGUCACAACACUAGAAGGAUGAAACAUGAGGAUCACCCAUGUA : 16.2

apparent Kd in this record for GGACGUCAGAUUAACAUGAGGAUCACCCAUGUCUUUUGACAUGAGGAUAUGCAACCUAAUUGGUUGCAGAAGGCAUGGACGUCC : 917

apparent Kd in this record for GGACAUUUACAGAAGGGCAAGCUCGAAAGAGGAGAAAGAGAACGAGCUUGCAGGAUAUGUUGAACAUGAGGAUCACCCAUGUCU : 9.75

apparent Kd in this record for GCGUUCAUGUAGAAGGUACCUACAACAUAUUAUAAACGCUAGACACAUGAGGAUCACCCAUGUUGUAAGGAUAUACAUGAACGC : 49

apparent Kd in this record for AUUUUACAUGAGGAUCACCCAUGUUUUGGCGGGUCAGGAUAUAGAUCGGAUGAGUUCUGUCUAGAAGGGACAUGUA : 77.5

apparent Kd in this record for ACAUGAGGAUCACCCAUGUAUAGAUUUGAAUGUUAAGUUACGUAGGAUAUCGUGUUUAGUAUGAUCGAGAAGGACGAUCUGAUA : 25.8

apparent Kd in this record for UGGUACAUGGGAGGAUAUCCUCAAGAACAUGAGGAUCACCCAUGUAAUUAUAAGCCGAAAGGCAUGGAGAAGGCCCAUGUACCU : 66.4

apparent Kd in this record for GGACGUCACAUCUACAUGAGGAUCACCCAUGUCAAAAGACAUGAGGAUAUGCUUCCUAAUUGGAAGCAGAAGGCAUGGACGUCC : 1210

apparent Kd in this record for GGAGACCUCACAGGAUAUGCUGGACUUUGUCCAGCAGAAGGGUGAAACAUGAGGAUCACCCAUGUAAUGGUCUCCAAAUUUAAU : 1030

apparent Kd in this record for CACAUGGUUACAGGAUAUGUUAGGUUGCAGUUGAUUGGUUAUUAAAAUAUUACAGAAGGGUAAGACAUGAGGAUCACCCAUGUG : 175

apparent Kd in this record for UUGAAUUGAAACAUGAGGAUCACCCAUGUGUCAUAAUUGACAUAGGAUAUGCUUAUACUUUUAAAGCAGAAGGAUGACGAUACU : 23.8

apparent Kd in this record for GAUUAACAUGAGGAUCACCCAUGUCGUUAAAUGGGAGGAUAUACGUGGACCGUAGUCCGCGUAGAAGGCCUAAUUG : 144

apparent Kd in this record for UACAUAAAUGAAGGAUAUCGAUAUCCAACAUGAGGAUCACCCAUGUUGAGGAUCACCCAUGUAAAUGAGAAGGUUAACAUAACU : 70.5

apparent Kd in this record for UGGUACUAGGGAGGAUAUGGGAAGAUACAUGAGGAUCACCCAUGUUUAAGAAUGCCGAGCGGCAACUAGAAGGCCCUAGUACCU : 479

apparent Kd in this record for GGUCCAUUAUGAGGAUAUGGCACCUUAUUGGUGCCAGAAGGCAUGUCUAUAGACAUGAGGAUCACCCAUGUAUUAAUUUGGACC : 360

###

# System: MS2 coat protein
# ASSAY OVERVIEW: apparent Kd, MS2 coat protein; higher = weaker binding; RNA-MaP array; FMN 200 µM where present
# ASSAY CONDITIONS: designed as: OFF switch for flavin mononucleotide; no ligand
Outcome: TRUE for apparent Kd of at least 40 nM; FALSE for anything lower.

input: Confirm if apparent Kd reported for the sequence UUAAAUCAUGUAGGAUAUGCAUGGCGAAGCUACGCAGAAGGACAUGAGGAUCACCCAUGUGCUAGCUACCGGAGACGGUGGCAA is 40 nM or above.
output: TRUE

input: Confirm if apparent Kd reported for the sequence UACUUGUUAGGAUAUCUUACAUUUGCAUCAUAGCAACCAUUGGAGAAGGGACAUGAGGAUCACCCAUGUUUGGU is 40 nM or above.
output: TRUE

input: Confirm if apparent Kd reported for the sequence UGUCGGAGCAGAGGAUAUACAUGAGGAUCACCCAUGUAAAUGAAAGAUAAGCUGGAAACAGCAAUGUAGAAGGCUGCUCCGACA is 40 nM or above.
output: FALSE

input: Confirm if apparent Kd reported for the sequence CAUUGACAUGAGGAUCACCCAUGUCAGGAUAUGCUUCAUGACACGAAAGUGUCAUGAAGCAGAAGGGACAUGCC is 40 nM or above.
output: FALSE

input: Confirm if apparent Kd reported for the sequence GGGAUGCUAGGAUAUACAUCGGGCUCCAGGAUGUUCCGGGAACAUGAGGAUCACCCAUGUAGAAGGAGCUAAAG is 40 nM or above.
output: TRUE

input: Confirm if apparent Kd reported for the sequence CCAUAAAAGAUCCAAAAUUACAACAUGAGGAUCACCCAUGUGCAGGAUAUCGUGAAAGUAAAAUACGAGAAGGGCAAAAACUGC is 40 nM or above.
output: TRUE

input: Confirm if apparent Kd reported for the sequence CGCAGGAUACAGAAGGAGUUAUUGAGAGGUUUACUAGGAUAUGUUCACAUGAGGAUCACCCAUGUCAUAUGGUUUUUUAUUGCG is 40 nM or above.
output: FALSE

input: Confirm if apparent Kd reported for the sequence UUGUAGUACGUAGGAUAUCAAUGAGGAUCACCCUGAGAAGGACGUGAGGACAUGAGGAUCACCCAUGUGGAUCACCCAUGUCAU is 40 nM or above.
output: TRUE

input: Confirm if apparent Kd reported for the sequence GUAGAGUAGUGAGGAUAUACGAGUACGAUAGUACGGCGAUCCAUUAAUACAUGAGGAUCACCCAUGUAGAAGGCACUUCUCUAC is 40 nM or above.
output: FALSE

input: Confirm if apparent Kd reported for the sequence GAGCUAUGAGGAUAUGCAUAGAUACGGAUUCGUGUAGUACUACAUGAGGAUCACCCAUGUAGAAGGCGUGGCUG is 40 nM or above.
output: FALSE

input: Confirm if apparent Kd reported for the sequence UCCGCAAGUGAAGGAUAUACGGCUGAAGAGCCAGUAGAAGGUCACAUGAGGAUCACCCAUGUCUACCGCUACGAGAUAUUACAA is 40 nM or above.
output: FALSE

input: Confirm if apparent Kd reported for the sequence UUGUUACAUGAGGAUCACCCAUGUGAGGAUAUGGUUCGGUACUGUCCUGUCGCGUACUCCAGAAGGCACGUGUU is 40 nM or above.
output: FALSE

input: Confirm if apparent Kd reported for the sequence UUUAUUUUGCAAGGAUAUGUUUAAUUUUAGUUUCCUUACACAUGAGGAUCACCCAUGUUAUACUUACAGAAGGUGCAUAAUUUU is 40 nM or above.
output: TRUE

input: Confirm if apparent Kd reported for the sequence UACGGGUCAGGAUAUGCGAGAGAGUGGGAAAUAGGAAGGUAGCAGAAGGGACAUGAGGAUCACCCAUGUGAGGC is 40 nM or above.
output: FALSE

input: Confirm if apparent Kd reported for the sequence AGGUAACAUGAGGAUCACCCAUGUCAGGAUAUCAGUAAGAUGAGAAUAGAGUAGAGUAUGAGAAGGGACUAUAU is 40 nM or above.
output: TRUE

input: Confirm if apparent Kd reported for the sequence CCAUUCAGAGGAUAUGCGCAUAGAUAAGACUUUUUUUCUUAACAUGAGGAUCACCCAUGUAGAAGGCUGUACCC is 40 nM or above.
output: FALSE

input: Confirm if apparent Kd reported for the sequence CCUUACACCGAGAAGGGCACGUAUUGAAGAGGGUGCCAGGAACAUCACAUGAGGAUCACCCAUGUGCAGGAUAUCGGCAGGAAC is 40 nM or above.
output: FALSE

input: Confirm if apparent Kd reported for the sequence ACCAAUGCAGGAUAUACAUGAGGAUCACCCAUGUAUAACCUACAUAGGUGAUCCUCAUGUAGAAGGGCAUUGGA is 40 nM or above.
output: FALSE

input: Confirm if apparent Kd reported for the sequence ACAUGAUCAGGAUAUACAUGAGGAUCACCCAUGUUUAUCAAAAAAGGGCCUUCUACAUGUAGAAGGGAUCUUGU is 40 nM or above.
output: FALSE

input: Confirm if apparent Kd reported for the sequence GGUUGACAAAGUCAACCAAUUCGAACAUGAGGAUCACCCAUGUAGGAUAUGCUACUCAAAGAGUAGCAGAAGGACAUGUGCCUU is 40 nM or above.
output: FALSE

input: Confirm if apparent Kd reported for the sequence GGAAAUCAUGUAGGAUAUGCAUGGCGAAGCUACGCAGAAGGACAUGAGGAUCACCCAUGUUAUAGCGUCCGAGAAAGGAUGCAA is 40 nM or above.
output: TRUE

input: Confirm if apparent Kd reported for the sequence AUGUGAGCAGGAUAUGCAGGUGUGCCGGAAGAAAGAAGAGGACAUGAGGAUCACCCAUGUAGAAGGGCUAGCCC is 40 nM or above.
output: TRUE

input: Confirm if apparent Kd reported for the sequence AAUAACAGAGGAUAUACUGUUUUAUGUGUUUAUUAUUUUAAACAUGAGGAUCACCCAUGUAGAAGGCUGAAUAA is 40 nM or above.
output: TRUE
